# Tested on: Cyberlindnera jadinii
# PROTOCOL DETAILS: Antifungal activity against Candida utilis NRRL Y-900 after 24 hrs by broth microdilution assay
# Format: functional
# STUDY CONDITIONS: Williopsis jadinii, NRRL Y-900, 24 h
MEASUREMENT TYPE: MIC (µg/mL)

compound=O=C(N/N=C/c1ccc([N+](=O)[O-])cc1)c1cn2c(n1)CCCC2 units_text=µg/mL rel== numeric_value=0.5
compound=CN(C)c1ccc(/C=N/NC(=O)c2cn3c(n2)CCCC3)cc1 units_text=µg/mL rel=> numeric_value=0.25
compound="CC(=O)N1CCN(c2ccc(OCC3COC(Cn4ccnc4)(c4ccc(Cl)cc4Cl)O3)cc2)CC1 (stereo unspecified) [KETOCONAZOLE]" units_text=µg/mL rel== numeric_value=0.125
compound=CC(C)c1ccc(/C=N/NC(=O)c2cn3c(n2)CCCC3)cc1 units_text=µg/mL rel=> numeric_value=0.25
compound=O=C(N/N=C/c1ccc2c(c1)OCO2)c1cn2c(n1)CCCC2 units_text=µg/mL rel== numeric_value=0.125
compound=Cc1ccc(/C=N/NC(=O)c2cn3c(n2)CCCC3)cc1 units_text=µg/mL rel=> numeric_value=0.25
compound=O=C(N/N=C/c1ccc(Br)cc1)c1cn2c(n1)CCCC2 units_text=µg/mL rel== numeric_value=1
compound="Clc1ccccc1C(c1ccccc1)(c1ccccc1)n1ccnc1 [CLOTRIMAZOLE]" units_text=µg/mL rel=< numeric_value=0.08
compound="COC1=CC(=O)C[C@@H](C)[C@]12Oc1c(Cl)c(OC)cc(OC)c1C2=O [GRISEOFULVIN]" units_text=µg/mL rel== numeric_value=0.5
compound=O=C(N/N=C/c1ccc(Cl)cc1)c1cn2c(n1)CCCC2 units_text=µg/mL rel=> numeric_value=0.25
compound=N#Cc1ccc(/C=N/NC(=O)c2cn3c(n2)CCCC3)cc1 units_text=µg/mL rel== numeric_value=0.032

* * *

Below: a set of entries, each annotated with reported MIC.
# Test system: Nakaseomyces glabratus
# PROTOCOL DETAILS: Antifungal activity against Candida glabrata clinical isolate 1 after 24 hrs by broth microdilution assay
# Format: functional
# STUDY CONDITIONS: isolate 1, 24 h
MEASUREMENT TYPE: MIC

structure_smiles_string=Clc1ccccc1C(c1ccccc1)(c1ccccc1)n1ccnc1 result="< 0.08 µg/mL"
structure_smiles_string=Cc1ccc(/C=N/NC(=O)c2cn3c(n2)CCCC3)cc1 result="> 0.25 µg/mL"
structure_smiles_string=O=C(N/N=C/c1ccc(Cl)cc1)c1cn2c(n1)CCCC2 result="> 0.25 µg/mL"
structure_smiles_string=O=C(N/N=C/c1ccc2c(c1)OCO2)c1cn2c(n1)CCCC2 result="> 0.25 µg/mL"
structure_smiles_string=CN(C)c1ccc(/C=N/NC(=O)c2cn3c(n2)CCCC3)cc1 result="> 0.25 µg/mL"
structure_smiles_string=CC(C)c1ccc(/C=N/NC(=O)c2cn3c(n2)CCCC3)cc1 result="> 0.25 µg/mL"

* * *

Below: a set of entries, each annotated with reported MIC.
# System: Candida albicans
# PROTOCOL DETAILS: Antifungal activity against Candida albicans ATCC 90028 after 24 hrs by broth microdilution assay
# Type: functional
# STUDY CONDITIONS: ATCC 90028, 24 h
MEASUREMENT TYPE: MIC

structure_smiles_string=Clc1ccccc1C(c1ccccc1)(c1ccccc1)n1ccnc1 result="< 0.08 µg/mL"
structure_smiles_string=Cc1ccc(/C=N/NC(=O)c2cn3c(n2)CCCC3)cc1 result="> 0.25 µg/mL"
structure_smiles_string=CN(C)c1ccc(/C=N/NC(=O)c2cn3c(n2)CCCC3)cc1 result="> 0.25 µg/mL"
structure_smiles_string=O=C(N/N=C/c1ccc2c(c1)OCO2)c1cn2c(n1)CCCC2 result="> 0.25 µg/mL"
structure_smiles_string=CC(C)c1ccc(/C=N/NC(=O)c2cn3c(n2)CCCC3)cc1 result="> 0.25 µg/mL"

* * *

# System: Vero
# PROTOCOL DETAILS: Cytotoxicity against african green monkey Vero cells up to 25 ug/ml after 48 hrs by neutral red assay
# Assay type: cell-based
# STUDY CONDITIONS: chlorocebus sabaeus
MEASUREMENT TYPE: Activity

structure_smiles_string=O=C(N/N=C/c1ccc(Br)cc1)c1cn2c(n1)CCCC2 result=Non-toxic
structure_smiles_string=CN(C)c1ccc(/C=N/NC(=O)c2cn3c(n2)CCCC3)cc1 result=Non-toxic
structure_smiles_string=Cc1ccc(/C=N/NC(=O)c2cn3c(n2)CCCC3)cc1 result=Non-toxic
structure_smiles_string=O=C(N/N=C/c1ccc2c(c1)OCO2)c1cn2c(n1)CCCC2 result=Non-toxic
structure_smiles_string=CC(C)c1ccc(/C=N/NC(=O)c2cn3c(n2)CCCC3)cc1 result=Non-toxic
